- TGT: Advanced glycosylation end product-specific receptor (Homo sapiens)
- Sequence (Q15109 whole entry): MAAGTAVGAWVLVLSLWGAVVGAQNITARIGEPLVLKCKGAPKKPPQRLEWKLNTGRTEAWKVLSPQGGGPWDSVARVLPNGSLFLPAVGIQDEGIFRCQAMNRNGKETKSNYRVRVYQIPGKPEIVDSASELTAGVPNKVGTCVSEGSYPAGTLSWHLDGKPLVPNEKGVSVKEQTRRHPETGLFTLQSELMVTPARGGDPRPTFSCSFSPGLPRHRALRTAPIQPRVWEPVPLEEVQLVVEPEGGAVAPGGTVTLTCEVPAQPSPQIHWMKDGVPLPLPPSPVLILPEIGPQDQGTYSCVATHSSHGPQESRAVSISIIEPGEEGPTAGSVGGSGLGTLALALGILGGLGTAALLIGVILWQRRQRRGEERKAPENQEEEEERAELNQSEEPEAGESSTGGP
VALUE_TYPE: Kd (µM)

>>> reported_value("CC(=O)Nc1ccc(-c2cc(C(=O)NCCN(C)C)c3ccccc3n2)cc1")
56
>>> reported_value("COCCNC(=O)c1cc(-c2ccc(NC(C)=O)cc2)nc2ccccc12")
99
>>> reported_value("CC(=O)Nc1ccc(-c2cc(C(=O)N3CCCC3)c3ccccc3n2)cc1")
77

Each recorded value in this set is attributed to BindingDB's records for patent US11192859.
